Sourced from PubChem BioAssay AID463173

- Tested on: DeltatarO mutant
- assay-text: S. aureus survival, RN4220 and DeltatarO strains – OD600, teichoic acid synthesis inhibitors, primary screen (AID 463173)
- experimental-setup: S. aureus RN4220 wild type/DeltatarO growth, OD600, 18 h, stronger effect = lower value, screened at 18.75 µg/mL (by protocol)
In all, about 52,000 compounds went through this assay and about 4,300 (8.3%) were called active. Many of the other results were omitted from the sample, so actives are more common in it than they were.
Below is a list of entries, each paired with its recorded survival value.
parameter: survival (%)

>  <compound>
Cc1ccc(-c2c(C(=O)NCCc3ccccc3)oc(=O)c3ccccc23)cc1

>  <parameter>
survival

>  <value-measured>
91

$$$$
>  <compound>
Cc1ccc(CCNC(=O)c2oc(=O)c3ccccc3c2-c2ccc(C)cc2)cc1

>  <parameter>
survival

>  <value-measured>
28

$$$$
>  <compound>
CCN(CC)S(=O)(=O)c1ccc2oc(C(=O)N(C)Cc3ccccc3)c(C)c2c1

>  <parameter>
survival

>  <value-measured>
40

$$$$
>  <compound>
COc1cc2[nH]c(=O)n(CCCCCC(=O)N3CCN(c4ccc(Cl)cc4)CC3)c(=O)c2cc1OC

>  <parameter>
survival

>  <value-measured>
67

$$$$
>  <compound>
Cc1cc(C)c2oc(-c3cccc(NC(=O)COc4ccccc4Cl)c3C)nc2c1

>  <parameter>
survival

>  <value-measured>
42

$$$$
>  <compound>
CCN(CC)S(=O)(=O)c1ccc2oc(C(=O)NCc3ccccc3OC)c(C)c2c1

>  <parameter>
survival

>  <value-measured>
71

$$$$
>  <compound>
Cc1cc(C)c2oc(-c3cccc(NC(=O)c4cccc(F)c4)c3C)nc2c1

>  <parameter>
survival

>  <value-measured>
72

$$$$
>  <compound>
N#CC(C#N)=Cc1cn(CCOc2ccc3c(c2)OCO3)c2ccccc12

>  <parameter>
survival

>  <value-measured>
98

$$$$
>  <compound>
Cc1cc(C)c2oc(-c3ccc(NC(=O)COc4ccccc4C)cc3)nc2c1

>  <parameter>
survival

>  <value-measured>
67

$$$$
>  <compound>
COc1ccc(Nc2cc(C(=O)NCCCN(C)C3CCCCC3)c3ccccc3n2)cc1

>  <parameter>
survival

>  <value-measured>
97

$$$$
>  <compound>
Cc1ccc2ccc(C(Nc3ccccn3)c3ccccc3)c(O)c2n1 (stereo unspecified)

>  <parameter>
survival

>  <value-measured>
39

$$$$
>  <compound>
Cc1ccnc(NC(c2cccc(O)c2)c2ccc3ccc(C)nc3c2O)c1 (stereo unspecified)

>  <parameter>
survival

>  <value-measured>
68

$$$$
>  <compound>
CCOc1ccc(CCNC(=O)c2oc(=O)c3ccccc3c2-c2ccc(C)cc2)cc1OCC

>  <parameter>
survival

>  <value-measured>
70

$$$$
>  <compound>
Cc1cc(C)c2c(CC(=O)Nc3ccc(S(=O)(=O)N4CCCCC4)cc3)coc2c1

>  <parameter>
survival

>  <value-measured>
76

$$$$
>  <compound>
Cc1ccc(-c2c(C(=O)NCc3ccc(F)cc3)oc(=O)c3ccccc23)cc1

>  <parameter>
survival

>  <value-measured>
57

$$$$
>  <compound>
CCCCN(Cc1ccccc1)C(=O)c1oc(=O)c2ccccc2c1-c1ccc(C)cc1

>  <parameter>
survival

>  <value-measured>
8

$$$$
>  <compound>
Cc1c(CCNC(=O)c2c(F)cccc2F)sc2nc(-c3ccc(F)cc3)nn12

>  <parameter>
survival

>  <value-measured>
117

$$$$
>  <compound>
Cc1ccc(-c2c(C(=O)N(C)Cc3ccccc3)oc(=O)c3ccccc23)cc1

>  <parameter>
survival

>  <value-measured>
24

$$$$
>  <compound>
COc1cc(C(=O)NC(c2ccc(Cl)cc2)c2cc(Cl)c3cccnc3c2O)cc(OC)c1OC (stereo unspecified)

>  <parameter>
survival

>  <value-measured>
85

$$$$
>  <compound>
Cc1ccc(-c2c(C(=O)NCCc3ccc(Cl)cc3)oc(=O)c3ccccc23)cc1

>  <parameter>
survival

>  <value-measured>
51

$$$$
>  <compound>
CCOc1ccc(N(C)C(=O)c2oc(=O)c3ccccc3c2-c2ccccc2)cc1

>  <parameter>
survival

>  <value-measured>
55

$$$$
